Every entry's value here was drawn from DBAASP.

Here we list compounds with their recorded MIC when tested on Staphylococcus aureus KCTC 1621.

COMPOUND	MIC
CC[C@H](C)[C@H](NC(=O)[C@H](CCCCN)NC(=O)[C@H](CCCCN)NC(=O)[C@H](CC(C)C)NC(=O)[C@H](CCCCN)NC(=O)[C@H](CCC(=O)O)NC(=O)CN)C(=O)NCC(=O)N[C@@H](CCC(N)=O)C(=O)N[C@@H](CCCCN)C(=O)N[C@H](C(=O)N[C@@H](CCCCN)C(=O)N[C@@H](CC(N)=O)C(=O)N[C@@H](Cc1ccccc1)C(=O)N[C@@H](Cc1ccccc1)C(=O)N[C@@H](CCCCN)C(=O)N[C@@H](CCCCN)C(=O)N[C@@H](CC(C)C)C(=O)O)[C@@H](C)CC	6.25 µM
CSCC[C@H](NC(=O)[C@H](C)NC(=O)[C@H](CC(C)C)NC(=O)[C@H](CS)NC(=O)[C@H](Cc1cnc[nH]1)NC(=O)[C@H](C)NC(=O)[C@H](C)N)C(=O)N[C@@H](CCCN=C(N)N)C(=O)N[C@@H](CCCN=C(N)N)C(=O)N[C@@H](CCCCN)C(N)=O [AAHCLAMRRK]	30 µM
CC[C@H](C)[C@H](NC(=O)[C@H](CS)NC(=O)[C@H](Cc1cnc[nH]1)NC(=O)[C@H](CC(C)C)NC(=O)[C@H](C)N)C(=O)N[C@@H](C)C(=O)N[C@@H](CC(C)C)C(=O)N[C@@H](CCCN=C(N)N)C(=O)N[C@@H](CCCCN)C(=O)N[C@@H](CCCCN)C(N)=O	7.5 µM
CC[C@H](C)[C@H](NC(=O)[C@H](C)NC(=O)[C@H](CC(C)C)NC(=O)[C@H](Cc1c[nH]c2ccccc12)NC(=O)[C@H](CC(C)C)NC(=O)[C@@H](N)CCCN=C(N)N)C(=O)N[C@@H](Cc1c[nH]c2ccccc12)C(=O)N[C@@H](CCCN=C(N)N)C(=O)N[C@@H](CCCN=C(N)N)C(N)=O	2 µM

====

// reported MIC for each item listed
# Tested on: Staphylococcus aureus ATCC 43300

ENTRY SMILES	MIC
CC[C@H](C)[C@H](NC(=O)[C@H](CCCNC(=N)N)NC(=O)CNC(=O)[C@H](CC(C)C)NC(=O)[C@H](Cc1ccccc1)NC(=O)[C@H](CCCCN)NC(=O)[C@H](CO)NC(=O)[C@H](Cc1ccccc1)NC(=O)[C@H](Cc1c[nH]c2ccccc12)NC(=O)[C@H](CCC(N)=O)NC(=O)[C@@H](NC(=O)[C@@H](N)Cc1ccccc1)C(C)C)C(=O)N[C@@H](CC(C)C)C(N)=O	4 µM
CC[C@H](C)[C@H](NC(=O)CN)C(=O)N[C@@H](CCSC)C(=O)N[C@@H](CO)C(=O)N[C@@H](CO)C(=O)N[C@@H](CC(C)C)C(=O)N[C@@H](CCSC)C(=O)N[C@@H](CCCCN)C(=O)N[C@@H](CCCCN)C(=O)N[C@@H](CC(C)C)C(=O)N[C@@H](C)C(=O)N[C@@H](C)C(=O)N[C@H](C(=O)N[C@H](C(=O)N[C@@H](C)C(=O)N[C@@H](CCCCN)C(N)=O)[C@@H](C)CC)[C@@H](C)CC	7.2 µM
CC[C@H](C)[C@H](NC(=O)[C@H](CCCN=C(N)N)NC(=O)[C@H](CCCCN)NC(=O)[C@H](CO)NC(=O)[C@@H](NC(=O)[C@@H](N)CCCCN)[C@@H](C)CC)C(=O)N[C@@H](CC(C)C)C(=O)N[C@H](C(=O)NCC(=O)N[C@@H](CCCCN)C(=O)N[C@@H](CCCCN)C(N)=O)[C@@H](C)O	> 201 µM

====

compounds and their reported MIC
# Test system: Staphylococcus aureus NCTC 8325-4
OBSERVED PROPERTY: MIC

ENTRY SMILES	ASSAYED TARGET	MEASURED
CC[C@H](C)[C@H](N)C(=O)N[C@@H](CCCCN)C(=O)N[C@@H](CCCCN)C(=O)N[C@H](C(=O)N[C@H](C(=O)N[C@@H](CCCCN)C(=O)N[C@@H](CCCCN)C(=O)N[C@H](C(N)=O)[C@@H](C)CC)[C@@H](C)CC)[C@@H](C)CC	Staphylococcus aureus NCTC 8325-4	≥ 500 µM
CC(C)C[C@H](NC(=O)[C@H](CC(C)C)NC(=O)[C@H](CC(N)=O)NC(=O)[C@H](CC(N)=O)NC(=O)[C@H](CC(C)C)NC(=O)[C@@H](N)C(C)C)C(=O)N[C@@H](CCCN=C(N)N)C(=O)O	Staphylococcus aureus NCTC 8325-4	≥ 312 µM
CC[C@H](C)[C@H](N)C(=O)N[C@@H](CCCCN)C(=O)N[C@@H](Cc1cnc[nH]1)C(=O)N[C@@H](CCC(N)=O)C(=O)NCC(=O)N[C@@H](CCCN=C(N)N)C(=O)N1CCC[C@H]1C(=O)N[C@@H](CCC(N)=O)C(=O)N[C@@H](CCC(=O)O)C(=O)O	Staphylococcus aureus NCTC 8325-4	≥ 2500 µM
CC[C@H](C)[C@H](N)C(=O)N[C@@H](CCCCN)C(=O)N[C@@H](Cc1cnc[nH]1)C(=O)N[C@@H](CCC(N)=O)C(=O)NCC(=O)N[C@@H](CC(C)C)C(=O)N1CCC[C@H]1C(=O)N[C@@H](CCC(N)=O)C(=O)N[C@@H](C)C(=O)O	Staphylococcus aureus NCTC 8325-4	≥ 2500 µM

====

# System: Aspergillus fumigatus

ENTRY SMILES	MIC
N[C@@H](Cc1ccccc1)C(=O)N1CCC[C@H]1C(=O)N[C@@H](Cc1c[nH]c2ccccc12)C(=O)N[C@@H](Cc1c[nH]c2ccccc12)C(=O)N[C@@H](Cc1c[nH]c2ccccc12)C(=O)N1CCC[C@H]1C(=O)N[C@@H](Cc1ccccc1)C(=O)O	≥ 469 µM

====

# Tested on: Staphylococcus aureus ATCC 6538

ENTRY SMILES	ASSAYED TARGET	MIC
CC[C@H](C)[C@H](NC(=O)CN)C(=O)N[C@@H](CC(C)C)C(=O)N[C@@H](CO)C(=O)N[C@H](C(=O)N[C@H](C(=O)N[C@@H](Cc1ccccc1)C(=O)N[C@@H](CCCCN)C(=O)N[C@@H](C)C(=O)NCC(=O)N[C@@H](CCCCN)C(=O)NCC(=O)N[C@H](C(=O)N[C@H](C(=O)N[C@H]1CSSC[C@@H](C(=O)O)NC(=O)[C@H](CC(C)C)NC(=O)CNC(=O)[C@H](CO)NC(=O)[C@H](CC(C)C)NC(=O)CNC1=O)C(C)C)[C@@H](C)CC)C(C)C)[C@@H](C)O	Staphylococcus aureus ATCC 6538	3.1 µM

====

A set of molecules tested on Staphylococcus aureus ATCC 43300, with measured MIC:

ENTRY SMILES	ASSAYED TARGET	VALUE OPERATOR	MIC (µM)
CC(C)C[C@H](NC(=O)[C@H](CC(C)C)NC(=O)[C@H](Cc1c[nH]c2ccccc12)NC(=O)[C@H](Cc1c[nH]c2ccccc12)NC(=O)[C@H](Cc1c[nH]c2ccccc12)NC(=O)[C@H](CCCN=C(N)N)NC(=O)[C@H](CS)NC(=O)[C@H](Cc1ccccc1)NC(=O)[C@H](Cc1ccc(O)cc1)NC(=O)[C@H](CO)NC(=O)[C@H](C)NC(=O)[C@@H](N)CS)C(N)=O	Staphylococcus aureus ATCC 43300	>	64
CC(C)C[C@H](NC(=O)CNC(=O)[C@H](CC(C)C)NC(=O)[C@H](CS)NC(=O)[C@H](CC(C)C)NC(=O)CNC(=O)[C@H](CC(C)C)NC(=O)[C@H](CCCCN)NC(=O)[C@@H](N)CCCCN)C(=O)N[C@@H](CCCCN)C(=O)N[C@@H](CCCCN)C(N)=O	Staphylococcus aureus ATCC 43300	=	64
CC(C)C[C@H](NC(=O)[C@H](C)NC(=O)CNC(=O)[C@H](CC(C)C)NC(=O)[C@H](CC(C)C)NC(=O)[C@H](CCCCN)NC(=O)[C@H](CCCCN)NC(=O)[C@H](CC(C)C)NC(=O)[C@H](CC(C)C)NC(=O)[C@H](CCCCN)NC(=O)[C@H](CC(C)C)NC(=O)[C@H](CC(C)C)NC(=O)[C@@H](N)CCCCN)C(=O)NCC(N)=O	Staphylococcus aureus ATCC 43300	=	3
CC[C@H](C)[C@H](NC(=O)[C@H](C)NC(=O)[C@H](CO)NC(=O)[C@@H]1CCCN1C(=O)[C@@H](NC(=O)[C@H](CC(C)C)NC(=O)[C@H](CO)NC(=O)[C@H](Cc1ccccc1)NC(=O)[C@H](CC(C)C)NC(=O)[C@@H](N)Cc1ccccc1)[C@@H](C)CC)C(=O)NCC(=O)NCC(=O)N[C@@H](CC(C)C)C(=O)N[C@H](C(=O)N[C@@H](CO)C(=O)N[C@@H](C)C(=O)N[C@@H](Cc1ccccc1)C(=O)N[C@@H](CCCCN)C(=O)O)[C@@H](C)CC	Staphylococcus aureus ATCC 43300	=	5
